Below, each entry is listed with its recorded Inhibition.
- System: Candida albicans
- assay-conditions: 32 ug/mL
- Description: Antifungal activity against Candida albicans ATCC 90028 (CO-ADD:FG_001); MIC in YNB media using NBS plates, by OD630
Results with a measured potency or affinity are listed apart.
measurement-name: Inhibition (%)

compound | uom | recorded-value
N#Cc1c(N)nc2c(c1-c1ccccc1)CN(Cc1ccccc1)CC2 | % | 1.07
Cl.OCCCC1CCNCC1 | % | 1.52
C#CCN(C)c1nc(NCCC2CCN(Cc3ccccc3)CC2)c(C#N)cc1C#N.Cl | % | -0.31
Cc1ccc(C2c3ccc4ccccc4c3Oc3nc4c(c(N)c32)CCCC4)cc1.Cl (configuration not stated) | % | 5.49
COc1cc(C2C(C#N)=C(N)Oc3c2ccc2ccccc32)ccc1O (configuration not stated) | % | 22.7
COc1ccc2cc(C3C4=C(CC(C)(C)CC4=O)Oc4nc5c(c(N)c43)CCCCC5)c(Cl)nc2c1 (configuration not stated) | % | 23
COc1nc2nc3c(c(N)c2cc1C#N)CN(Cc1ccccc1)CC3 | % | 1.24

* * *

- Test system: Candida albicans
- assay-conditions: 32 ug/mL
Potency and affinity values are given separately.
Quick list: Inhibition per entry.
measurement-name: Inhibition (%)

compound | uom | recorded-value
CCOc1nc(N)c(C#N)c(-c2ccccc2)c1C#N | % | 1.61
CC1=C(C(=O)O[C@@H]2C[C@@]3(C)CC[C@H]2C3(C)C)C(c2ccccc2)C(C#N)=C(N)O1 (some centres not stated) | % | 15.2
CC(=O)Oc1ccc(C=C2N=C(C)OC2=O)cc1 | % | -1
CCOC(=O)C1=C(C)Oc2nc3c(c(N)c2C1c1nccn1C)CCCCC3 (configuration not stated) | % | 3.82
CCOC(=O)c1cc(C#N)c(N)nc1C | % | 2.73
N#Cc1cc(C#N)c(NCCCCC2CCN(Cc3ccccc3)CC2)nc1N | % | 1.01
Cn1ccnc1C1c2ccc3cccnc3c2Oc2nc3c(c(N)c21)CCC3 (configuration not stated) | % | 2.9
C=CCNc1nc(N)c(C#N)cc1C#N | % | 3.01
COC(=O)C(=Cc1ccccc1)NC(=O)c1ccccc1 | % | 0.5
CC(=O)n1cc(/C=C2\N=C(c3ccccc3)OC2=O)c2ccccc21 | % | 1.66
CN1C/C(=C\Cl)n2c1c(C#N)cc(C#N)c2=O | % | 1.11
N#CC1=C(N)Oc2ccc3ccccc3c2C1c1cccc([N+](=O)[O-])c1 (configuration not stated) | % | 10.7
COc1nc(NC(C)=O)c(C#N)c(-c2ccccc2)c1C#N | % | 2.3
Cl.ClCCCCN1CCCCC1 | % | -0.33
CN(N=O)C(=O)NC1(C(=O)O)CC1c1ccccc1 (configuration not stated) | % | 1.7
Cn1c(CO)cc2cc(OCCCC3CCN(Cc4ccccc4)CC3)ccc21 | % | 2.07
COC(=O)/C(=C/c1ccc(O)cc1)NC(=O)c1ccccc1 | % | 1.73

* * *

- System: Cryptococcus neoformans
- assay-conditions: Concentration 32 ug.mL-1; ASSAY_TEST Inhibition of Fungal Growth; detection method Resazurin; Absorption (OD600-OD570); plate type 384well; NBS; CORNING #3640
- Description: Antifungal activity against Cryptococcus neoformans H99 ATCC 208821 (CO-ADD:FG_002); MIC in YNB media using NBS plates, by Resazurin OD(600-570)
Results with a measured potency or affinity are listed apart.
With a cut-off of -20%, any Inhibition strictly below it is called 1; any Inhibition meeting it or above is called -1.

compound | group-label
N#Cc1c(N)nc(N)c(C#N)c1-c1ccccc1 | 1
COc1ccc2cc(C3C4=C(CC(C)(C)CC4=O)Oc4nc5c(c(N)c43)CCCCC5)c(Cl)nc2c1 (centres undefined) | -1
C#CCNc1nc(OC)c(C#N)c(-c2ccccc2)c1C#N | 1
Clc1ccc(-c2cn3ccccc3n2)cc1 | -1
COc1cc(C2C(C#N)=C(N)Oc3ccc4ccccc4c32)ccc1O (centres undefined) | 1
CCOC(=O)c1cc2c(N)c3c(nc2nc1C)CCCC3 | 1
CC(C(=O)O)c1c[nH]c2ccccc12 (centres undefined) | -1
N#Cc1c(N)nc(NCCC2CCN(Cc3ccccc3)CC2)c(C#N)c1-c1ccccc1 | -1
CC#CCN(Cc1ccccc1)c1nc(N)c(C#N)c(-c2ccccc2)c1C#N | 1
Cc1ccc(CNNC(N)=O)cc1.Cl | -1
Cc1nn(-c2ccccc2)c2ncnc(NCc3ccccc3)c12 | -1
N#CC1=C(N)Oc2ccc3ccccc3c2C1c1ccccc1 (centres undefined) | 1
COc1ccc(C2c3c(ccc4ccccc34)OC(=NBr)C2(Br)C#N)cc1 (centres undefined) | 1
COc1cc(Br)c(C=O)cc1OC | -1
CC(=O)CCc1c[nH]c2ccccc12 | -1
COc1ccc(C=C2N=C(c3ccccc3)SC2=O)cc1 | -1
Cc1ccc(C2C(C#N)=C(N)Oc3c2ccc2ccccc32)cc1 (centres undefined) | -1
CCOC(=O)c1cc2ccccc2[nH]1 | -1
C#CCNc1nc(NCCCC2CCN(Cc3ccccc3)CC2)c(C#N)cc1C#N.Cl | 1
